Consider the following sequences; for each one, report its recombinant barcode read abundance (log10).
test: recombinant barcode read abundance after kanamycin selection (control-corrected) (log10(CPM+1)); higher = more efficient recombination; sequences stand for … in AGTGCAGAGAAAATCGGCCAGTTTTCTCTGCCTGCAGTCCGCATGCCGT…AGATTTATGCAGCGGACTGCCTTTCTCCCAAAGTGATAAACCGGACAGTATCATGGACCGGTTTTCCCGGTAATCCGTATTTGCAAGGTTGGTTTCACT; site = the 11-nt target;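 also: IS621 recombinase and bridge RNA in Escherichia coli cells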
Give bare numbers.

Each of the following entries comes with a recorded value; kindly state recombinant barcode read abundance (log10) for each.
1. GTTCAGACTTGGGTTCTAACCTGTTGCCT (site GTTCAGACTAG)
2. GAAAGGGCTTGGGTTCTAACCTGTTGCCT (site GAAACGGCTAG)

a:
[1.58, 0.0842]

Each of the following entries comes with a recorded value; kindly state recombinant barcode read abundance (log10) for each.
1. CCGCTATCTTGGGTTCTAACCTGTTGCCT (site CCGTTATCTAG)
2. ACATGTCCTTGGGTTCTAACCTGTTGCTT (site ACATGTCCTAC)
3. TCTTGGACTTGGGTTCTAACCTGTTGCTC (site TCTTGGACTAA)
4. TAGAAGGCTTGGGTTCTAACCTGTTGCTT (site TAGAAGGCTAG)
5. TATAATGCTTGGGTTCTAACCTGTTGCGT (site ATCGGACCTCA)
6. TTGGCAGCTTGGGTTCTAACCTGTTGCCT (site TTGGTAGCTAG)
7. AGGCGTCCTTGGGTTCTAACCTGTTGCCG (site AGGCGTCCTTG)

a:
1. 0.0555
2. 0.0155
3. 0.0489
4. 0.0656
5. 0.15
6. 0.0352
7. 0.122

###

test: recombinant barcode read abundance after kanamycin selection (control-corrected) (log10(CPM+1)); higher = more efficient recombination; sequences stand for … in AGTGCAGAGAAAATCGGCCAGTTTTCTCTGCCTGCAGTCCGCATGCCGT…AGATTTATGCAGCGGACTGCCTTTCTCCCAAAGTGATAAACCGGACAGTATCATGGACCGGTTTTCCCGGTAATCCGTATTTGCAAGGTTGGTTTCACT; site = the 11-nt target
measured_quantity: recombinant barcode read abundance (log10)
Answers are plain numbers.

As a guide, the following entries are already answered.
macromolecule_sequence: ATCCCATCTTGGGTTCTAACCTGTTGCCT (site ATACCATCTAG)
data_value: 0.383
--
macromolecule_sequence: CTAGACTCTTGGGTTCTAACCTGTTGCAA (site CTAGACTCTTT)
data_value: 2
--
macromolecule_sequence: GTACGCACTTGGGTTCTAACCTGTTGCCT (site AGTTAGTCTCT)
data_value: 0.0249

Please examine the following record next.
q: What does the data say about its recombinant barcode read abundance (log10)? Entry: GGTGGCTCTTGGGTTCTAACCTGTTGCCA (site TAATCTCCTAC)
a: 0.0407

###

test: recombinant barcode read abundance after kanamycin selection (control-corrected) (log10(CPM+1)); higher = more efficient recombination; sequences stand for … in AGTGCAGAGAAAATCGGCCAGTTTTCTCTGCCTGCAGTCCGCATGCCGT…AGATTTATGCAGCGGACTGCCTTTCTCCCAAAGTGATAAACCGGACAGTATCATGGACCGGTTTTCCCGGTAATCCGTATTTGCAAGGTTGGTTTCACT; site = the 11-nt target
Cut-off 0.2 on recombinant barcode read abundance (log10), inclusive. At or above means Criterion met; below means Criterion not met.

q: Does TCCGTGCCTTGGGTTCTAACCTGTTGCCT (site TCCGTGCCTAG) have a reported recombinant barcode read abundance (log10) of at least 0.2?
a: Criterion met

q: Does GTCGGAGCTTGGGTTCTAACCTGTTGCGG (site GTCGGAGCTCT) have a reported recombinant barcode read abundance (log10) of at least 0.2?
a: Criterion met

q: Does TAATGATCTTGGGTTCTAACCTGTTGCCT (site TATTGATCTAG) have a reported recombinant barcode read abundance (log10) of at least 0.2?
a: Criterion not met

q: Does GTCGCGGCTTGGGTTCTAACCTGTTGCCT (site GTCGCGCCTAG) have a reported recombinant barcode read abundance (log10) of at least 0.2?
a: Criterion not met

q: Does TAGTCAGCTTGGGTTCTAACCTGTTGCAC (site TAGTCAGCTGT) have a reported recombinant barcode read abundance (log10) of at least 0.2?
a: Criterion met

q: Does GGGCCTGCTTGGGTTCTAACCTGTTGCCA (site GGGCCTGCTTG) have a reported recombinant barcode read abundance (log10) of at least 0.2?
a: Criterion met

q: Does CTGGTATCTTGGGTTCTAACCTGTTGCTT (site CTGGTATCTAA) have a reported recombinant barcode read abundance (log10) of at least 0.2?
a: Criterion met

q: Does AAAGTCCCTTGGGTTCTAACCTGTTGCCT (site GAAGTCCCTAG) have a reported recombinant barcode read abundance (log10) of at least 0.2?
a: Criterion met

###

test: recombinant barcode read abundance after kanamycin selection (control-corrected) (log10(CPM+1)); higher = more efficient recombination; sequences stand for … in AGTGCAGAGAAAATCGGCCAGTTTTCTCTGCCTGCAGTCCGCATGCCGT…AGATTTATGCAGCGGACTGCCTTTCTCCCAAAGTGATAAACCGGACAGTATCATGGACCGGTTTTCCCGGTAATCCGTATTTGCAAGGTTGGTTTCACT; site = the 11-nt target
Cut-off 0.3 on recombinant barcode read abundance (log10), inclusive. At or above means Criterion met; below means Criterion not met.

macromolecule_sequence: CGCTTGTCTTGGGTTCTAACCTGTTGCCT (site CGCTCGTCTAG)
class_name: Criterion not met
--
macromolecule_sequence: CAAGGGACTTGGGTTCTAACCTGTTGCGG (site CAAGGGACTCC)
class_name: Criterion met
--
macromolecule_sequence: GAATCTACTTGGGTTCTAACCTGTTGCTT (site GAATCTACTAA)
class_name: Criterion not met
--
macromolecule_sequence: GAGGAGCCTTGGGTTCTAACCTGTTGCGT (site TAGGAACCTAC)
class_name: Criterion met
--
macromolecule_sequence: TGCCAGACTTGGGTTCTAACCTGTTGCAT (site TGCCAGCCTAG)
class_name: Criterion met
--
macromolecule_sequence: AGACTAGCTTGGGTTCTAACCTGTTGCGT (site TTACTAGCTAC)
class_name: Criterion not met

q: Does ATAAGAGCTTGGGTTCTAACCTGTTGCCT (site ATAATAGCTAG) have a reported recombinant barcode read abundance (log10) of at least 0.3?
a: Criterion not met

q: Does ATGTCGTCTTGGGTTCTAACCTGTTGCCT (site AGGTCGTCTAG) have a reported recombinant barcode read abundance (log10) of at least 0.3?
a: Criterion not met

###

test: recombinant barcode read abundance after kanamycin selection (control-corrected) (log10(CPM+1)); higher = more efficient recombination; sequences stand for … in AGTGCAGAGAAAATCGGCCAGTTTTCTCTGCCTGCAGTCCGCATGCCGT…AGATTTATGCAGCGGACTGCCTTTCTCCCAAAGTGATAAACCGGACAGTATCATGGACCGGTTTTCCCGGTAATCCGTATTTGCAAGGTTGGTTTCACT; site = the 11-nt target
Consider the following sequences; for each one, report its recombinant barcode read abundance (log10).
Numbers only.

macromolecule_sequence: AGAGAACCTTGGGTTCTAACCTGTTGCCT (site CGAGAACCTAG)
data_value: 0.415
--
macromolecule_sequence: TGGACGCCTTGGGTTCTAACCTGTTGCCT (site TGGACGCCTAG)
data_value: 0.252
--
macromolecule_sequence: TGTTCTACTTGGGTTCTAACCTGTTGCCG (site TGCTCTACTCA)
data_value: 0.052

Each of the following entries comes with a recorded value; kindly state recombinant barcode read abundance (log10) for each.
1. TCGACCACTTGGGTTCTAACCTGTTGCCT (site TATACCACTAG)
2. TATTAGACTTGGGTTCTAACCTGTTGCCT (site TATTAGACTAG)
3. GGTGCGGCTTGGGTTCTAACCTGTTGCCT (site GGTGCGGCTAG)
4. GGCGCCTCTTGGGTTCTAACCTGTTGCGC (site GGCGCCTCTGC)

a:
1. 0.0386
2. 0.225
3. 0.494
4. 0.777

Each of the following entries comes with a recorded value; kindly state recombinant barcode read abundance (log10) for each.
1. ACGTGGACTTGGGTTCTAACCTGTTGCTA (site GACAATGCTAT)
2. CACATCGCTTGGGTTCTAACCTGTTGCCT (site TACTTCGCTAG)
3. TACTAAACTTGGGTTCTAACCTGTTGCCT (site TACTCAACTAG)
4. AGTTGTCCTTGGGTTCTAACCTGTTGCGT (site AGTTGTCCTAT)
5. CTCCATTCTTGGGTTCTAACCTGTTGCCT (site CTCCATACTAG)
6. GATGTAACTTGGGTTCTAACCTGTTGCCT (site GAGGTAACTAG)
7. ACATGTCCTTGGGTTCTAACCTGTTGCCT (site ACATGTCCTAG)
8. GATTCTCCTTGGGTTCTAACCTGTTGCGT (site GATTCTCCTAT)

a:
1: 0.181; 2: 0.155; 3: 0.0276; 4: 0.251; 5: 0.0751; 6: 0.0797; 7: 0.828; 8: 0.118

Each of the following entries comes with a recorded value; kindly state recombinant barcode read abundance (log10) for each.
1. GAGGCTCCTTGGGTTCTAACCTGTTGCCA (site GAGGCTCCTCG)
2. TAATCGTCTTGGGTTCTAACCTGTTGCCT (site TAATCGCCTAG)
3. ATCGGAGCTTGGGTTCTAACCTGTTGCGG (site ATCGGAGCTCC)
4. TATGGTACTTGGGTTCTAACCTGTTGCGT (site GGGATACCTTA)
5. ACGACTCCTTGGGTTCTAACCTGTTGCTT (site ACGAGTCCTAA)
6. GGTGCCTCTTGGGTTCTAACCTGTTGCAT (site GGGGCCTCTCT)

a:
1: 0.0289; 2: 0.0275; 3: 1.7; 4: 0.0757; 5: 0.0152; 6: 0.258
